Recorded Geometric mean IFN-γ in arbitrary fluorescence units 48H for the following substances
Test system: HLA-A2::Mart-1(26-35) reactive T cells stimulated by T2 cells
Test: T cell activation time course assay, IFNγ production (FACS), Mart-1 epitope
Format: cell-based
Conditions: peptide 0.5 pM, time point 48H, free peptide washed away

>>> result("[am-phg][2-AOC]AGIGILT[PRG]")
"88 arbitrary fluorescence units"
>>> result("[am-phg][NVA]AGIGILT[PRG]")
"105 arbitrary fluorescence units"
>>> result("[am-phg][NVA]AGIGILT[ALG]")
"111 arbitrary fluorescence units"
>>> result("[am-phg]LAGIGILT[PRG]")
"103 arbitrary fluorescence units"

Query: API: value(readout=Geometric mean IFN-γ in arbitrary fluorescence units 48H, system=HLA-A2::Mart-1(26-35) reactive T cells stimulated by T2 cells) for record "[CSME][2-AOC]AGIGILTV"
Result: 119 arbitrary fluorescence units

###

Target: HLA-A0201 (Homo sapiens, UniProt P04439, D140Y/D185E/D98H/E176V/E277Q/G131W/G231S/I119V/I121R/I166T/I218V/L300P/L318F/N151K/N90K/P208A/P217A/Q86G/Q94H/R138H/R169H/T345S)
Format: binding
Where no end group is shown, it is not given here. BUTALA = not defined here; ALG = not defined here; PHG = not defined here
Each item that follows carries a reported % inhibition at T=4H and T=24H FP 24h.
State just the number; it will be interpreted in %.

>>> result("[PHG][NVA]AGIGILT[ALG] ({PHG-NVA}-AGIGILT-{ALG}; reading uncertain; also: printed as [PHG][NVA]AGIGILT[ALG])")
64

Query: Reported % inhibition at T=4H and T=24H FP 24h for "[am-phg][2-AOC]YDFFVW[ALG]" : what is it?
Result: 73

Query: Then this substance: "[PHG][2-AOC]YDFFVWL"
Result: 75

Query: Then "[am-phg][CpALA]YDFFVW[PRG]" ?
Result: 80

Query: Proceed to "[am-phg][NVA]YDFFVW[PRG]"
Result: 80

Query: Consider next the substance [PHG][BUTALA]LGFVFTL ({PHG-BUTALA}-LGFVFTL; reading uncertain) in the same way.
Result: 75

Query: Repeat with "[PHG][NLE]LGFVFTL"
Result: 77

###

Target: HLA-A0201 (Homo sapiens, UniProt P04439, D140Y/D185E/D98H/E176V/E277Q/G131W/G231S/I119V/I121R/I166T/I218V/L300P/L318F/N151K/N90K/P208A/P217A/Q86G/Q94H/R138H/R169H/T345S)
Format: binding
ALG = not defined here; PHG = not defined here
EXPERIMENTAL_READOUT: % inhibition at T=4H and T=24H FP 4h (%)
Your answer is read as %, so omit the unit and give the number.

>>> result("[PHG][2-AOC]YDFFVW[PRG]")
83
>>> result("[PHG][NVA]YDFFVW[PRG]")
83
>>> result("[PHG][NVA]AGIGILT[ALG] ({PHG-NVA}-AGIGILT-{ALG}; reading uncertain; also: printed as [PHG][NVA]AGIGILT[ALG])")
65
>>> result("[am-phg][CpALA]YDFFVW[PRG]")
80
>>> result("[CSME][2-AOC]AGIGILT[PRG]")
72

Would you kindly look at the next entry?
Query: # get_value(readout='% inhibition at T=4H and T=24H FP 4h', item= "[PHG][NVA]YDFFVW[ALG]" )
Result: 76
